These entries and their values trace back to patent US20050171037A1.

experiment: Compound A pharmacokinetics after oral administration of a single dose with and without ritonavir, human subjects, fed; assay type: in vivo; settings: plasma, po, 100 mg, single oral dose 100 mg, without ritonavir, arithmetic mean, N = 3, read-out: t½ (terminal phase plasma half-life) (converted)
endpoint: half-life (h)
The answer is to be given in h; state only the numeric part.

For `C=CCNC(=O)[C@H]1N(C(=O)[C@@H](O)[C@H](Cc2ccccc2)NC(=O)c2cccc(O)c2C)CSC1(C)C` the compound record lists half-life as 8.63

====

experiment: Compound B pharmacokinetics after oral administration of a single dose alone (fasting) and with ritonavir (fed), human subjects; type: in vivo; conditions: plasma, po, 3600 mg, single oral dose 3600 mg (active dose 3240 mg), alone, fasting, geometric mean
endpoint: Cmax (ng/mL)
Write the value in ng/mL as a bare number.

Cc1c(O)cccc1C(=O)N[C@@H](Cc1ccccc1)[C@H](O)C(=O)N1CC(F)(F)C(C)(C)[C@H]1C(=O)NCC(F)(F)F [Compound B] has a reported Cmax of 14500
